As shown below, each of these molecules has a reported EC50 value.
System: THP-1 viability, CellTiter-Glo luminescence, 72 h
Assay: PubChem AID 2252

[[record]]
molecule = "COc1cc(Br)cc(C=Nc2cccc(C(F)(F)F)c2)c1O"
metric = "EC50"
value_measured = "50 µM"

[[record]]
molecule = "CN1CCN(C2=Cc3ccccc3Sc3cc(F)c(F)cc32)CC1"
metric = "EC50"
value_measured = "14.8 µM"

[[record]]
molecule = "Oc1ccc(COCc2ccccc2)c2cccnc12"
metric = "EC50"
value_measured = "1.24 µM"

[[record]]
molecule = "Cc1ccc2c(c1)N/C(=C(\\C=C(/Cl)[N+](=O)[O-])[N+](=O)[O-])N2"
metric = "EC50"
value_measured = "26.8 µM"

[[record]]
molecule = "CCN1CCN(c2cc(C)c3cc(NC(=S)N4CCN(c5ccccc5F)CC4)ccc3n2)CC1"
metric = "EC50"
value_measured = "17.9 µM"

[[record]]
molecule = "CN1CCN(C2=Cc3ccccc3Sc3cc(F)ccc32)CC1"
metric = "EC50"
value_measured = "8.09 µM"

[[record]]
molecule = "CC1CCC(C(C)C)C(OC(=O)Cn2c(COc3ccccc3)[n+](C)c3ccccc32)C1 (centres undefined)"
metric = "EC50"
value_measured = "2.37 µM"

[[record]]
molecule = "Oc1[nH]c2ccccc2c1N=NC(=S)N1CCOCC1"
metric = "EC50"
value_measured = "2.48 µM"


Tested on THP-1 viability, CellTiter-Glo luminescence, 72 h: Nc1ncn(C2O[C@H](CO)[C@@H](O)[C@H]2O)c(=O)n1 (some centres undefined) . Observed EC50: 14 µM

Tested on THP-1 viability, CellTiter-Glo luminescence, 72 h: C#CCOCCOCCOCCNc1nc(N2CCN(C(=O)CCCCCCCCCCNC(=O)Cn3cc(CCCCCN)nn3)CC2)nc(N2CCN(C(=O)CCCCCCCCCCNC(=O)[C@H]([C@@H](C)CC)n3cc(CCCCN=C(N)N)nn3)CC2)n1 . Observed EC50: 11 µM

These entries and their values trace back to PubChem BioAssay AID2252.
